B1: HEEH_KT_rd6_3632 (parent)
chain: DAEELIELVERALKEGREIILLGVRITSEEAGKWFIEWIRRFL

- Variants of: B1
- procedure-details: folding stability dG (cDNA display proteolysis); higher = more stable
- setup-conditions: PBS, room temperature
For each of the variants below, state its folding stability dG.
Answers are plain numbers, in kcal/mol.

State recorded folding stability dG for all listed variants.
1. E3I
2. E4W
3. E37H
4. A12I
5. W38H

3.85
4.19
3.46
3.73
2.82

State recorded folding stability dG for all listed variants.
1. E7L
2. W34A
3. E37Q
4. I6E
5. R40D
6. R25I
7. L13Q

[3.91, 4.01, 3.67, 3.18, 2.87, 3.67, 2.95]
